# Angiotensin-converting enzyme (Homo sapiens): pIC50 values follow
# Sequence (P12821 whole entry): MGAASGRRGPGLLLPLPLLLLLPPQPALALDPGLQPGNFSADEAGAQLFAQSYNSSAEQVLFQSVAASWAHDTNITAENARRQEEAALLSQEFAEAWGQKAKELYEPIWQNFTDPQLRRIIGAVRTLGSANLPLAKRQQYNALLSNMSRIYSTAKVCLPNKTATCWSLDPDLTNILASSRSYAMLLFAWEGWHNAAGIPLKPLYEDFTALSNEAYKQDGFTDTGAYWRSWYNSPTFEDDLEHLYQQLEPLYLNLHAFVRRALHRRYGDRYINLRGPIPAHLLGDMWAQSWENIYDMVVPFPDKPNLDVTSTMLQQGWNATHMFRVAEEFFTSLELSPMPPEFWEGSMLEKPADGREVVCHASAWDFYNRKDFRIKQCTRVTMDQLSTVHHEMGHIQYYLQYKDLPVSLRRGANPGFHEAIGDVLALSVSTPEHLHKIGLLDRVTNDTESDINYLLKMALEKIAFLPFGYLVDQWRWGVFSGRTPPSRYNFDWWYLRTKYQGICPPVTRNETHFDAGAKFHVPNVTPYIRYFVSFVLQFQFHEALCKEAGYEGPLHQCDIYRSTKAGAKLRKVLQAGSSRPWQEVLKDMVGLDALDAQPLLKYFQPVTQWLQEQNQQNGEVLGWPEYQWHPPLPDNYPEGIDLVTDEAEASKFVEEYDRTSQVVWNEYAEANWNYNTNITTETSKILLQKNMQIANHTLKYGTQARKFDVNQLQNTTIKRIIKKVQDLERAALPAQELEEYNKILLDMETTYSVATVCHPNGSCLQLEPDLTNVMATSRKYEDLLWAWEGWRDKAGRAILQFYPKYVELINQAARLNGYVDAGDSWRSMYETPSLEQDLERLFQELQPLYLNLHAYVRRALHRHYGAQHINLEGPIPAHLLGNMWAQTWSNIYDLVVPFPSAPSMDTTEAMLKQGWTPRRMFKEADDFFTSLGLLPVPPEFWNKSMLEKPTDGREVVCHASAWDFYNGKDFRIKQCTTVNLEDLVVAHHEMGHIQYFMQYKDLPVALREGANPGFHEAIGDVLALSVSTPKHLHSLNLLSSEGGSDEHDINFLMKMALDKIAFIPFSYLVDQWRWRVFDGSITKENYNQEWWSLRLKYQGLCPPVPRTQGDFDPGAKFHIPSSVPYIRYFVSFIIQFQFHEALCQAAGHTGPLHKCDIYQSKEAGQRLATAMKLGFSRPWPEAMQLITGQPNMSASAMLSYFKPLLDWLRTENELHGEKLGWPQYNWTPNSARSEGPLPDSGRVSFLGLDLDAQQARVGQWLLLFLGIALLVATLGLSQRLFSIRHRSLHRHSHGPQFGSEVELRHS
Lab note — pIC50 values are minus log10 of concentrations in M.

get_value(item= CCC[C@H](N[C@H]1CCc2ccccc2N(CC(=O)O)C1=O)C(=O)O , readout=pIC50) returns 8.22

get_value(item= O=C(O)CN1C(=O)[C@@H](N[C@@H](CCCCNC(=O)OCc2ccccc2)C(=O)O)CCc2ccccc21 , readout=pIC50) returns 7.89

get_value(item= CCOC(=O)[C@H](CCCCNC(=O)OCc1ccccc1)N[C@H]1CCc2ccccc2N(CC(=O)O)C1=O , readout=pIC50) returns 7.82

get_value(item= O=C(O)CN1C(=O)[C@@H](N[C@@H](CSCc2ccccc2)C(=O)O)CCc2ccccc21 , readout=pIC50) returns 8.54

get_value(item= COC(=O)[C@H](CC(C)C)N[C@H]1CCc2ccccc2N(CC(=O)O)C1=O , readout=pIC50) returns 6.00

get_value(item= CSCC[C@H](N[C@H]1CCc2ccccc2N(CC(=O)O)C1=O)C(=O)O , readout=pIC50) returns 8.19

get_value(item= O=C(O)CN1C(=O)[C@@H](N[C@@H](CSCCc2ccccc2)C(=O)O)CCc2ccccc21 , readout=pIC50) returns 8.15

get_value(item= CC(C)(C)OC(=O)NCCCC[C@H](N[C@H]1CCc2ccccc2N(CC(=O)O)C1=O)C(=O)O , readout=pIC50) returns 8.40
